The origin of these recorded values is patent US20190055314A1.

MEASUREMENT TARGET: T1, human CD137-His6 (Sino Biological #10041-H08H) (human, UniProt Q07011 24-186)
T1 construct: Bought; also called human CD137 protein; not shown: His6 tag
ASSAY METHOD TEXT: SPR Biacore, IgG
In this section, each of the binders is paired with its reported koff.
Lab book: enter the figure in s⁻¹, no units written.

# annotated cases, reported koff shown
AG10061 (antibody, human IgG4 S228P, kappa, V domains shown) VH: EVQLVESGGGLVQPGGSLRLSCAASGFSLSTSGVAVAWIRQAPGKGLEWLALIDWDDDKRYSTSLKSRLTISRDNSKNTLYLQLNSLRAEDTAVYYCAREGSTTVVGDWFDYWGQGTLVTVSS VL: DIQLTQSPSSLSASVGDRVTITCRASQGIGTYLAWYQQKPGKAPKLLIYDASNRATGIPSRFSGSGSGTDFTLTISSLQPEDFATYYCQQGYSLWTFGQGTKVEIKR: 0.00078
AG10125 (antibody, human IgG4 S228P, kappa, V domains shown, also called IgG of Fab 5314) VH: EVQLVESGGGLVQPGGSLRLSCAASGFSLSTGGVAVGWIRQAPGKGLEWLALIDWAGDKSYSTSLKSRLTISRDNSKNTLYLQLNSLRAEDTAVYYCARGGSDTVLGDWFAYWGQGTLVTVSS VL: DIQLTQSPSSLSASVGDRVTITCRASQGVSPYLAWYQQKPGKAPKLLIYDASNRATGIPSRFSGSGSGTDFTLTISSLQPEDFATYYCQQGYSTWTFGQGTKVEIKR: 0.0017

Which koff is listed for AG10083 (antibody, human IgG4 S228P, kappa, V domains shown, also called IgG of Fab 5323) VH: EVQLVESGGGLVQPGGSLRLSCAASGFSLSTSGVGVGWIRQAPGKGLEWIGEIYHSGSTYYSPSLKSRVTISRDNSKNTLYLQLNSLKAEDTAVYYCAREGSDVVTGDWFAYWGQGTLVTVSS VL: DIQLTQSPSSLSASVGDRVTITCRASQGISSVLAWYQQKPGKAPKLLIYDASSLESGVPSRFSGSGSGTDFTLTISSLQPEDFATYYCQQGYSLWTFGQGTKVEIKR ?
0.0069
